Target: Focal adhesion kinase 1 (Homo sapiens)
Sequence (Q05397 whole entry): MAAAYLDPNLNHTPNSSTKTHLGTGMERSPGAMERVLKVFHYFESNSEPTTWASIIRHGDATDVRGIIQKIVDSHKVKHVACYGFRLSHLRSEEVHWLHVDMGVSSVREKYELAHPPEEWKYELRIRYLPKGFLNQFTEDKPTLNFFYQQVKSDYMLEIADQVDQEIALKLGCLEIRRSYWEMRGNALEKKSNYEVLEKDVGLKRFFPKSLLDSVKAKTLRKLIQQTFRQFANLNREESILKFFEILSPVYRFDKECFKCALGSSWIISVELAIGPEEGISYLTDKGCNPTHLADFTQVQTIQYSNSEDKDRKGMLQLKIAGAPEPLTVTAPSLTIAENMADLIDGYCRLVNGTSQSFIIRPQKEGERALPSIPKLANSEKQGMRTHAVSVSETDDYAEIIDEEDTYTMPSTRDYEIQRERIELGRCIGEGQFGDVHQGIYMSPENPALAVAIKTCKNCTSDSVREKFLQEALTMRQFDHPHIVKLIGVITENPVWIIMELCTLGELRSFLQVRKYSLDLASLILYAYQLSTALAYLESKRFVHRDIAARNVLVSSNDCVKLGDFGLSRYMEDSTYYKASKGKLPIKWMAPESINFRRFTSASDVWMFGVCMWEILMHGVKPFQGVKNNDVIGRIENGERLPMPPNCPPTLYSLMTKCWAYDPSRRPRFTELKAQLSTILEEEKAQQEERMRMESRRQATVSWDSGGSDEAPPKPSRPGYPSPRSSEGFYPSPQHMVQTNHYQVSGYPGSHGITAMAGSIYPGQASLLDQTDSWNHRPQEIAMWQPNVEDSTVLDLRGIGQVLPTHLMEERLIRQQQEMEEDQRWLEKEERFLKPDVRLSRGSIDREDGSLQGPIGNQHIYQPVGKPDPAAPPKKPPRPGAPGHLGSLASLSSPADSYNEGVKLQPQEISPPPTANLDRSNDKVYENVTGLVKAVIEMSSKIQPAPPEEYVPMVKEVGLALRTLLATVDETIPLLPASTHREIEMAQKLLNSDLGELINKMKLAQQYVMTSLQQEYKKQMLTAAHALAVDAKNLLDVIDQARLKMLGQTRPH
Assay: Inhibition of FAK (unknown origin) incubated for 50 mins in presence of substrate/ATP by HTRF assay
Measured Quantity: IC50 (nM)

# Molecule, Measured Quantity, Output Unit, Reported Value
rows = [
    ("CNC1CCN(C(=O)c2ccc(Nc3ncc(Cl)c(Nc4ccccc4P(C)(C)=O)n3)cc2)CC1", "IC50", "nM", 413),
    ("Cc1cc(Nc2ncc(Cl)c(Nc3ccccc3P(C)(C)=O)n2)ccc1C(=O)NC1CCC(O)CC1 (centres undefined)", "IC50", "nM", 10.3),
    ("CP(C)(=O)c1ccccc1Nc1nc(Nc2ccc(C(=O)N3CCC(N4CCOCC4)CC3)cc2)ncc1Cl", "IC50", "nM", 149),
    ("COc1cc(C(=O)NC2CCNCC2)ccc1Nc1ncc(Cl)c(Nc2ccccc2P(C)(C)=O)n1", "IC50", "nM", 6.7),
    ("Cc1cc(Nc2ncc(Cl)c(Nc3ccccc3P(C)(C)=O)n2)ccc1C(=O)NC1CCNCC1", "IC50", "nM", 31.9),
    ("CP(C)(=O)c1ccccc1Nc1nc(Nc2ccc(C(=O)N3CCNCC3)cc2)ncc1Cl", "IC50", "nM", 328),
    ("Cc1cc(C(=O)NC2CCNCC2)ccc1Nc1ncc(Cl)c(Nc2ccccc2P(C)(C)=O)n1", "IC50", "nM", 28.8),
    ("CP(C)(=O)c1ccccc1Nc1nc(Nc2ccc(C(=O)NC3CCNCC3)cc2)ncc1Cl", "IC50", "nM", 8.7),
    ("COc1cc(C(=O)NC2CCC(O)CC2)ccc1Nc1ncc(Cl)c(Nc2ccccc2P(C)(C)=O)n1 (centres undefined)", "IC50", "nM", 15.7),
]
